Biological target: Histone deacetylase
Experiment: Inhibition of in vitro enzyme activity measured in partially purified rat liver Histone deacetylase preparation
Format: tissue-based
measured.attribute: IC50 (nM)

compound	study.target	IC50, nM
NC(=O)[C@H](Cc1ccccc1)NC(=O)CCCCCCC(=O)NO	Histone deacetylase	840

I = COC(=O)[C@@H](NC(=O)CCCCCCC(=O)NO)C(C)C
II = COC(=O)[C@H](Cc1ccc([N+](=O)[O-])cc1)NC(=O)CCCCCCC(=O)NO
III = O=C(CCCCCCC(=O)N[C@@H](Cc1ccccc1)C(=O)Nc1ccccc1)NO
IV = O=C(CCCCCCC(=O)N[C@@H](Cc1ccccc1)C(=O)NCCc1ccccc1)NO
V = COC(=O)[C@H](Cc1cccc2ccccc12)NC(=O)CCCCCCC(=O)NO
Incoming: Task field, ranking: reported IC50, descending order. Please respond by ranking the labels in the order requested.
Outgoing: II, III, I, IV, V
(II: 1340 nM, III: 790 nM, I: 380 nM, IV: 260 nM, V: 130 nM)

P = O=C(CCCCCCC(=O)N[C@@H](Cc1ccccc1)C(=O)NCc1ccccc1)NO
Q = O=C(CCCCCCC(=O)N[C@H](Cc1ccccc1)C(=O)O)NO
R = COC(=O)[C@H](Cc1c[nH]c2ccccc12)NC(=O)CCCCCCC(=O)NO
S = COC(=O)[C@H](Cc1ccc(OC)cc1)NC(=O)CCCCCCC(=O)NO
Incoming: Rank ascending by IC50. Please respond by ranking the labels in the order requested.
Outgoing: R, P, S, Q
(R: 320 nM, P: 460 nM, S: 800 nM, Q: 1540 nM)

A = COC(=O)[C@H](Cc1cccs1)NC(=O)CCCCCCC(=O)NO
B = O=C(CCCCCCC(=O)NO)NO [SUBEROHYDROXAMIC ACID]
Incoming: Exercise: compare A and B ; which one has the greater IC50? Answer = label.
Outgoing: B

###

Target protein (sequence): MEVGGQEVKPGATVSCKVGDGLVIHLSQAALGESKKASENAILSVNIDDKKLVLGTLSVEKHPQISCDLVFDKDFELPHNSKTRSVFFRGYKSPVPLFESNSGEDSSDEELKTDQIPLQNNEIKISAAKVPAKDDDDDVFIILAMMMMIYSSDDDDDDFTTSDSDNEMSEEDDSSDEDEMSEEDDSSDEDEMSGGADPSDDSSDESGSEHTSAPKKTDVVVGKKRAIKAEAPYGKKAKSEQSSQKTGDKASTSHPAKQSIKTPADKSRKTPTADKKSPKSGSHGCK
pIC50: −log10 of the molar value.
measured.attribute: pIC50

molecule	pIC50
O=C(CCCCCCC(=O)N[C@@H](Cc1ccccc1)C(=O)NCc1ccccc1)NO	6.85
COC(=O)[C@H](Cc1cccs1)NC(=O)CCCCCCC(=O)NO	6.15
O=C(CCCCCCC(=O)NO)NO [SUBEROHYDROXAMIC ACID]	6.49

I = COC(=O)[C@H](Cc1ccccc1)NC(=O)CCCCCCC(=O)NO
II = COC(=O)[C@H](Cc1ccc(OC)cc1)NC(=O)CCCCCCC(=O)NO
III = COC(=O)[C@H](Cc1c[nH]c2ccccc12)NC(=O)CCCCCCC(=O)NO
IV = COC(=O)[C@@H](NC(=O)CCCCCCC(=O)NO)C(C)C
Incoming: Task field, ranking: reported pIC50, descending order. Please respond by ranking the labels in the order requested.
Outgoing: III, II, I, IV
